- System: SK-BR-3
- experimentNotes: normalised response (% of control), CellTiter-Glo; higher = more viable cells (100 = DMSO, 0 = benzethonium chloride kill control)
- conditionLabel: incubation time: 72 h
Label Y when normalised response >= 90%; otherwise N.

[
  {
    "molecule": "O=[N+]([O-])c1ccc2c(c1)S(=O)(=O)C=C2 [Stattic] (500 nM)",
    "assayTarget": "SK-BR-3",
    "category": "Y"
  },
  {
    "molecule": "CN(C)C(=N)NC(=N)N [Metformin] (1000 nM)",
    "assayTarget": "SK-BR-3",
    "category": "N"
  },
  {
    "molecule": "O=C(O)CNC(=O)c1c(O)c2ccccc2n(Cc2ccccc2)c1=O [IOX-2] (500 nM)",
    "assayTarget": "SK-BR-3",
    "category": "Y"
  },
  {
    "molecule": "O=C(CCCCCCC(=O)Nc1ccccc1)NO [Vorinostat] (100 nM)",
    "assayTarget": "SK-BR-3",
    "category": "Y"
  },
  {
    "molecule": "COc1cc(Nc2c(C#N)cnc3cc(OCCCN4CCN(C)CC4)c(OC)cc23)c(Cl)cc1Cl [Bosutinib] (100 nM)",
    "assayTarget": "SK-BR-3",
    "category": "Y"
  },
  {
    "molecule": "CO[C@@H]1[C@H](N(C)C(=O)c2ccccc2)C[C@H]2O[C@]1(C)n1c3ccccc3c3c4c(c5c6ccccc6n2c5c31)C(=O)NC4 [Midostaurin] (100 nM)",
    "assayTarget": "SK-BR-3",
    "category": "Y"
  },
  {
    "molecule": "CCN(CC)CCCC(C)Nc1ccnc2cc(Cl)ccc12 (stereo not drawn) [Chloroquine] (1000 nM)",
    "assayTarget": "SK-BR-3",
    "category": "N"
  },
  {
    "molecule": "Cc1cc(Nc2nc(N[C@@H](C)c3ncc(F)cn3)ncc2Cl)[nH]n1 [AZD1480] (10 nM)",
    "assayTarget": "SK-BR-3",
    "category": "Y"
  }
]

* * *

Parameter: normalised response. Scope: all listed entries.
- Tested on: MFM-223
- experimentNotes: normalised response (% of control), CellTiter-Glo; higher = more viable cells (100 = DMSO, 0 = benzethonium chloride kill control)
- conditionLabel: incubation time: 72 h
quantityMeasured: normalised response (%)

[
  {
    "molecule": "CC(C)n1cnc2c(NCCc3ccc(O)cc3)nc(-c3csc4ccccc34)nc21 [StemRegenin 1] (10000 nM)",
    "quantityMeasured": "normalised response",
    "readoutUnits": "%",
    "numericResult": 59.2
  },
  {
    "molecule": "CCNC(=O)c1noc(-c2cc(C(C)C)c(O)cc2O)c1-c1ccc(CN2CCOCC2)cc1 [NVP-AUY922] (1000 nM)",
    "quantityMeasured": "normalised response",
    "readoutUnits": "%",
    "numericResult": 36.3
  },
  {
    "molecule": "CNC(=O)c1ccccc1Sc1ccc2c(/C=C/c3ccccn3)n[nH]c2c1 [Axitinib] (10000 nM)",
    "quantityMeasured": "normalised response",
    "readoutUnits": "%",
    "numericResult": 49.3
  },
  {
    "molecule": "CC[C@H](CO)Nc1nc(NCc2ccccc2)c2ncn(C(C)C)c2n1 [Seliciclib] (10000 nM)",
    "quantityMeasured": "normalised response",
    "readoutUnits": "%",
    "numericResult": 89
  },
  {
    "molecule": "CCN(CC)CCCC(C)Nc1ccnc2cc(Cl)ccc12 (configuration not stated) [Chloroquine] (100000 nM)",
    "quantityMeasured": "normalised response",
    "readoutUnits": "%",
    "numericResult": 0.63
  },
  {
    "molecule": "CO[C@@]12[C@H](COC(N)=O)C3=C(C(=O)C(C)=C(N)C3=O)N1C[C@@H]1N[C@@H]12 [Mitomycin C] (10000 nM)",
    "quantityMeasured": "normalised response",
    "readoutUnits": "%",
    "numericResult": 86.5
  },
  {
    "molecule": "C=CCn1c(=O)c2cnc(Nc3ccc(N4CCN(C)CC4)cc3)nc2n1-c1cccc(C(C)(C)O)n1 [MK1775] (10000 nM)",
    "quantityMeasured": "normalised response",
    "readoutUnits": "%",
    "numericResult": 36.1
  }
]

* * *

- System: CAL-148
- experimentNotes: normalised response (% of control), CellTiter-Glo; higher = more viable cells (100 = DMSO, 0 = benzethonium chloride kill control)
- conditionLabel: incubation time: 72 h
Each record here notes measured normalised response.

[
  {
    "molecule": "O=C(O)CNC(=O)c1c(O)c2ccccc2n(Cc2ccccc2)c1=O [IOX-2] (5000 nM)",
    "normalised response": "100%"
  },
  {
    "molecule": "CN(C)C(=N)NC(=N)N [Metformin] (100 nM)",
    "normalised response": "93.7%"
  },
  {
    "molecule": "CCNC(=O)CCC/C=C\\C[C@@H]1[C@@H](/C=C/[C@@H](O)CCc2ccccc2)[C@H](O)C[C@@H]1O [Bimatoprost] (550 nM)",
    "normalised response": "93.6%"
  },
  {
    "molecule": "CO[C@@H]1[C@H](N(C)C(=O)c2ccccc2)C[C@H]2O[C@]1(C)n1c3ccccc3c3c4c(c5c6ccccc6n2c5c31)C(=O)NC4 [Midostaurin] (10 nM)",
    "normalised response": "105%"
  },
  {
    "molecule": "O=[N+]([O-])c1ccc2c(c1)S(=O)(=O)C=C2 [Stattic] (5000 nM)",
    "normalised response": "46.4%"
  },
  {
    "molecule": "O=C(O)CNC(=O)c1c(O)c2ccccc2n(Cc2ccccc2)c1=O [IOX-2] (50 nM)",
    "normalised response": "98.7%"
  },
  {
    "molecule": "C=CCN(/C=C1/C(=O)O[C@H](COC)[C@@]2(C)C1=C(O)C(=O)C1=C2[C@H](OC(C)=O)C[C@]2(C)C(=O)CC[C@@H]12)CC=C [Sonolisib] (1 nM)",
    "normalised response": "110%"
  },
  {
    "molecule": "CO[C@@H]1[C@H](N(C)C(=O)c2ccccc2)C[C@H]2O[C@]1(C)n1c3ccccc3c3c4c(c5c6ccccc6n2c5c31)C(=O)NC4 [Midostaurin] (1 nM)",
    "normalised response": "103%"
  },
  {
    "molecule": "COc1ccc(S(=O)(=O)Nc2cccnc2Nc2ccc(O)cc2)cc1 [ABT-751] (1000 nM)",
    "normalised response": "87.2%"
  },
  {
    "molecule": "COc1cc(Nc2c(C#N)cnc3cc(OCCCN4CCN(C)CC4)c(OC)cc23)c(Cl)cc1Cl [Bosutinib] (10 nM)",
    "normalised response": "105%"
  },
  {
    "molecule": "CN[C@@H](C)C(=O)N[C@H]1CN(C(=O)CC(C)C)CC[C@H]2CC[C@@H](C(=O)NC(c3ccccc3)c3ccccc3)N2C1=O [AT-406] (1 nM)",
    "normalised response": "98.3%"
  },
  {
    "molecule": "CCN(CC)CCCC(C)Nc1ccnc2cc(Cl)ccc12 (stereo not given) [Chloroquine] (10000 nM)",
    "normalised response": "60.2%"
  },
  {
    "molecule": "CC1(COc2ccc3c(c2)ncn3-c2ccc3cccc(N4CCC(N)CC4)c3n2)COC1 [Crenolanib] (10 nM)",
    "normalised response": "110%"
  },
  {
    "molecule": "O=C(CCCCCCC(=O)Nc1ccccc1)NO [Vorinostat] (10 nM)",
    "normalised response": "98.6%"
  },
  {
    "molecule": "CN(Cc1cnc2nc(N)nc(N)c2n1)c1ccc(C(=O)N[C@@H](CCC(=O)O)C(=O)O)cc1 [Methotrexate] (5000 nM)",
    "normalised response": "100%"
  },
  {
    "molecule": "CC1(C)CCC(c2ccc(Cl)cc2)=C(CN2CCN(c3ccc(C(=O)NS(=O)(=O)c4ccc(N[C@H](CCN5CCOCC5)CSc5ccccc5)c(S(=O)(=O)C(F)(F)F)c4)cc3)CC2)C1 [Navitoclax] (10 nM)",
    "normalised response": "90%"
  },
  {
    "molecule": "CC(O)(CS(=O)(=O)c1ccc(F)cc1)C(=O)Nc1ccc(C#N)c(C(F)(F)F)c1 (stereo not given) [Bicalutamide] (1 nM)",
    "normalised response": "109%"
  },
  {
    "molecule": "CCn1c(C(=O)N(C2CC2)C2CC2)cc2c3c(ncn3C)c(Nc3cc(C)n(C)n3)nc21 (1 nM)",
    "normalised response": "97.4%"
  },
  {
    "molecule": "CN(Cc1cnc2nc(N)nc(N)c2n1)c1ccc(C(=O)N[C@@H](CCC(=O)O)C(=O)O)cc1 [Methotrexate] (50 nM)",
    "normalised response": "109%"
  },
  {
    "molecule": "O=C(CCCCCCC(=O)Nc1ccccc1)NO [Vorinostat] (1000 nM)",
    "normalised response": "90.6%"
  },
  {
    "molecule": "C/C(=C\\c1csc(C)n1)[C@@H]1C[C@@H]2O[C@]2(C)CCC[C@H](C)[C@H](O)[C@@H](C)C(=O)C(C)(C)[C@@H](O)CC(=O)N1 [Ixabepilone] (0.1 nM)",
    "normalised response": "99.3%"
  },
  {
    "molecule": "CC(O)(CS(=O)(=O)c1ccc(F)cc1)C(=O)Nc1ccc(C#N)c(C(F)(F)F)c1 (stereo not given) [Bicalutamide] (10 nM)",
    "normalised response": "113%"
  },
  {
    "molecule": "CC[C@H](CO)Nc1nc(NCc2ccccc2)c2ncn(C(C)C)c2n1 [Seliciclib] (1000 nM)",
    "normalised response": "104%"
  },
  {
    "molecule": "CO[C@@H]1[C@H](N(C)C(=O)c2ccccc2)C[C@H]2O[C@]1(C)n1c3ccccc3c3c4c(c5c6ccccc6n2c5c31)C(=O)NC4 [Midostaurin] (1000 nM)",
    "normalised response": "80.5%"
  },
  {
    "molecule": "CO[C@@]12[C@H](COC(N)=O)C3=C(C(=O)C(C)=C(N)C3=O)N1C[C@@H]1N[C@@H]12 [Mitomycin C] (10 nM)",
    "normalised response": "86.7%"
  },
  {
    "molecule": "CN[C@@H](C)C(=O)N[C@H]1CN(C(=O)CC(C)C)CC[C@H]2CC[C@@H](C(=O)NC(c3ccccc3)c3ccccc3)N2C1=O [AT-406] (1000 nM)",
    "normalised response": "82.4%"
  },
  {
    "molecule": "CC1(COc2ccc3c(c2)ncn3-c2ccc3cccc(N4CCC(N)CC4)c3n2)COC1 [Crenolanib] (1 nM)",
    "normalised response": "102%"
  },
  {
    "molecule": "CCn1c(C(=O)N(C2CC2)C2CC2)cc2c3c(ncn3C)c(Nc3cc(C)n(C)n3)nc21 (1000 nM)",
    "normalised response": "96.6%"
  },
  {
    "molecule": "CNC(=O)c1ccccc1Sc1ccc2c(/C=C/c3ccccn3)n[nH]c2c1 [Axitinib] (1 nM)",
    "normalised response": "103%"
  },
  {
    "molecule": "CC(=O)[C@]1(O)Cc2c(O)c3c(c(O)c2[C@@H](O[C@H]2C[C@H](N)[C@H](O)[C@H](C)O2)C1)C(=O)c1ccccc1C3=O [Idarubicin] (1 nM)",
    "normalised response": "116%"
  }
]

# credit: the supplement of paper PMC4862054
